target: Recombinant human H-PGDS (Homo sapiens); test: H-PGDS inhibitory activity (prostaglandin D2 production from prostaglandin H2, measured by LC-MS/MS); conditions: recombinant human H-PGDS 1.0 nM expressed in E. coli; prostaglandin H2 25 μM; preincubated 15 minutes on ice, reacted on ice for 1 minute; concentration that inhibits prostaglandin D2 production by 50%
metric: IC50 (nM)

CS(=O)(=O)c1ccc(NC(=O)c2ccc(-c3nccc4occc34)cc2)cc1 [Example 109] | 2.9

a = CCCn1nnnc1N1CCC(NC(=O)c2ccc(-c3nccc4occc34)cc2)CC1 [Example 240]
b = O=C(NCC1CCCO1)c1ccc(-c2nccc3occc23)cc1 (stereo not shown) [Example 94]
c = O=C(NCC1COc2ccccc2C1)c1ccc(-c2nccc3occc23)cc1 (stereo not shown) [Example 221]
List from greatest to least IC50. Give the labels in the order specified.
b, c, a

---

biological target: Recombinant human H-PGDS (Homo sapiens); construct: made in house; host or cells: E. coli; experiment: H-PGDS inhibitory activity (prostaglandin D2 production from prostaglandin H2, measured by LC-MS/MS); type: biochemical; conditions: recombinant human H-PGDS 1.0 nM expressed in E. coli; prostaglandin H2 25 μM; preincubated 15 minutes on ice, reacted on ice for 1 minute; concentration that inhibits prostaglandin D2 production by 50%
pIC50: −log10 of the molar value.
metric: pIC50

Worked examples, 3 compounds total:
Cc1cnc(-c2ccc(C(=O)N[C@H]3CC[C@H](C(C)(C)O)CC3)cc2)c2ccoc12 [Example 129] | 8.62
CC(C)(O)c1cnc(N2CC[C@H](NC(=O)c3ccc(-c4nccc5occc45)cc3)C2)nc1 [Example 200] | 8.96
CCc1cnc(-c2ccc(C(=O)N[C@H]3CC[C@H](C(C)(C)O)CC3)cc2)c2ccoc12 [Example 138] | 7.82

I = COCCn1cc(CNC(=O)c2ccc(-c3nccc4[nH]ccc34)cc2)cn1 [Example 48]
II = O=C(N[C@H]1CC[C@H](C2(O)CC2)CC1)c1ccc(-c2nccc3occc23)cc1 [Example 257]
Compare I and II by numeric pIC50 and name the larger one. // caller expects the label of the chosen entry
I
(I: 9.14, II: 8.80)

a = O=C(Nc1ccc(N2CCC(C(=O)N3CCOCC3)CC2)c(F)c1)c1ccc(-c2nccc3occc23)cc1 [Example 223]
b = O=C(N[C@H]1CCN(c2ncc(F)cn2)C1)c1ccc(-c2nccc3occc23)cc1 [Example 194]
c = CC(C)(O)[C@H]1CC[C@H](NC(=O)c2ccc(-c3ncc(C#N)c4occc34)cc2)CC1 [Example 139]
List from greatest to least pIC50. Give the labels in the order specified.
b, a, c
(b: 9.03, a: 8.28, c: 6.60)

---

molecular target: Recombinant human H-PGDS (Homo sapiens); construct: made in house; host or cells: E. coli; assay: H-PGDS inhibitory activity (prostaglandin D2 production from prostaglandin H2, measured by LC-MS/MS); format: biochemical; details: recombinant human H-PGDS 1.0 nM expressed in E. coli; prostaglandin H2 25 μM; preincubated 15 minutes on ice, reacted on ice for 1 minute; concentration that inhibits prostaglandin D2 production by 50%
metric: IC50 (nM)

CC(C)(O)[C@H]1CC[C@H](NC(=O)c2ccc(-c3nccc4[nH]ccc34)c(F)c2)CC1 | 1
O=C(NC1CC1)c1ccc(-c2nccc3[nH]ccc23)cc1 | 1.4
O=C(Nc1ccccc1)c1ccc(-c2nccc3occc23)cc1 | 3.7
O=C(N[C@H]1CCN(c2ncc(CO)cn2)C1)c1ccc(-c2nccc3occc23)cc1 | 1

1 = NS(=O)(=O)c1cccc(NC(=O)c2ccc(-c3nccc4occc34)cc2)c1
2 = O=C(NC1CCCC1)c1ccc(-c2nccc3occc23)cc1
Compare 1 and 2 by numeric IC50 and name the larger one. // caller expects the label of the chosen entry
2
(2: 12 nM, 1: 2.3 nM)

---

target: Recombinant human H-PGDS (Homo sapiens); assay: H-PGDS inhibitory activity (prostaglandin D2 production from prostaglandin H2, measured by LC-MS/MS); conditions: recombinant human H-PGDS 1.0 nM expressed in E. coli; prostaglandin H2 25 μM; preincubated 15 minutes on ice, reacted on ice for 1 minute; concentration that inhibits prostaglandin D2 production by 50%
metric: IC50 (nM)

Worked examples, 5 compounds total:
N#CN1CCC(NC(=O)c2ccc(-c3nccc4occc34)cc2)CC1 | 2.3
COC(=O)c1ccnc(N2CCC(NC(=O)c3ccc(-c4nccc5occc45)cc3)CC2)n1 | 1.2
O=C(Nc1cccnc1)c1ccc(-c2nccc3occc23)cc1 | 2.1
O=C(N[C@H]1CC[C@H](O)CC1)c1ccc(-c2nccc3occc23)cc1 | 2.6
O=C(N[C@H]1CCN(c2ccncn2)C1)c1ccc(-c2nccc3occc23)cc1 | 1.5

A = CC1(C)CC(O)CC(NC(=O)c2ccc(-c3nccc4occc34)cc2)C1 (centres unmarked)
B = CCn1nnnc1N1CCC(NC(=O)c2ccc(-c3nccc4occc34)cc2)CC1
C = Cc1cc2occc2c(-c2ccc(C(=O)N[C@H]3CC[C@H](C(C)(C)O)CC3)cc2F)n1
List from greatest to least IC50. Give the labels in the order specified.
C, A, B
(C: 5.5 nM, A: 2.2 nM, B: 1.2 nM)

---

Molecular target: Recombinant human H-PGDS (Homo sapiens, UniProt O60760)
Sequence (O60760 whole entry): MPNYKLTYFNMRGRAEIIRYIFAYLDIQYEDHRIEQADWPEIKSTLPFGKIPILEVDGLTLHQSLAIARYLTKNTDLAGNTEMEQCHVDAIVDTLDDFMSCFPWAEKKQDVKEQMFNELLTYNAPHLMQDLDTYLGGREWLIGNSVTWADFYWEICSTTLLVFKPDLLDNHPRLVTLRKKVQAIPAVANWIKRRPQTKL
Assay: H-PGDS inhibitory activity (prostaglandin D2 production from prostaglandin H2, measured by LC-MS/MS)
Details: recombinant human H-PGDS 1.0 nM expressed in E. coli; prostaglandin H2 25 μM; preincubated 15 minutes on ice, reacted on ice for 1 minute; concentration that inhibits prostaglandin D2 production by 50%
Protocol: The H-PGDS inhibitory activity of each Example compound was measured according to the method reported by LIN, Jiang. et al. (NO 2007/041634). Recombinant human H-PGDS (final concentration: 1.0 nM) expressed in E. coli was mixed in an assay buffer containing 20 mM Tris-HCl (pH 8.0), 2 mM magnesium chloride, 2 mM reduced glutathione, and 0.5 mg/mL γ-globulin, and 150 μL of the mixture was dispensed into a 8-strip PCR tube (BM Equipment Co., Ltd.). […]
pIC50: −log10 of the molar value.
metric: pIC50

Worked examples, 8 compounds total:
O=C(NC1CCN(c2cc(Cl)ncn2)CC1)c1ccc(-c2nccc3occc23)cc1 | 9.00
Cc1cc(NC(=O)c2ccc(-c3nccc4occc34)cc2)ccc1S(N)(=O)=O | 8.80
Cc1nn(C)c(C)c1CNC(=O)c1ccc(-c2nccc3[nH]ccc23)cc1 | 9.05
O=C(NCC1CCCCC1)c1ccc(-c2nccc3[nH]ccc23)cc1 | 9.00
O=C(NC1CC2(CNC2)C1)c1ccc(-c2nccc3occc23)cc1 | 7.41
O=C(NCc1cccc(Cl)c1)c1ccc(-c2nccc3[nH]ccc23)cc1 | 8.85
CC(O)[C@H]1CC[C@H](NC(=O)c2ccc(-c3nccc4occc34)cc2)CC1 (some centres unmarked) | 8.89
O=C(N[C@H]1CC[C@H](O)CC1)c1ccc(-c2nccc3[nH]ccc23)cc1 | 9.36

1 = CC1(NC(=O)c2ccc(-c3nccc4occc34)cc2)CCC(O)CC1 (centres unmarked)
2 = NC(=O)C12CCC(NC(=O)c3ccc(-c4nccc5occc45)cc3)(CC1)CC2
Compare 1 and 2 by numeric pIC50 and name the larger one. // caller expects the label of the chosen entry
2

1 = O=C(NCc1ccccc1Cl)c1ccc(-c2nccc3occc23)cc1
2 = CO[C@H]1CN(c2ncc(CO)cn2)C[C@H]1NC(=O)c1ccc(-c2nccc3occc23)cc1
3 = Cn1cc(Br)c(CNC(=O)c2ccc(-c3nccc4[nH]ccc34)cc2)n1
4 = O=C(NC(CO)c1ccccn1)c1ccc(-c2nccc3occc23)cc1 (centres unmarked)
List from greatest to least pIC50. Give the labels in the order specified.
3, 1, 2, 4
(3: 8.85, 1: 7.92, 2: 7.41, 4: 7.17)

---

Target: Recombinant human H-PGDS (Homo sapiens, UniProt O60760)
Assay: H-PGDS inhibitory activity (prostaglandin D2 production from prostaglandin H2, measured by LC-MS/MS)
Details: recombinant human H-PGDS 1.0 nM expressed in E. coli; prostaglandin H2 25 μM; preincubated 15 minutes on ice, reacted on ice for 1 minute; concentration that inhibits prostaglandin D2 production by 50%
Experimental: The H-PGDS inhibitory activity of each Example compound was measured according to the method reported by LIN, Jiang. et al. (NO 2007/041634). Recombinant human H-PGDS (final concentration: 1.0 nM) expressed in E. coli was mixed in an assay buffer containing 20 mM Tris-HCl (pH 8.0), 2 mM magnesium chloride, 2 mM reduced glutathione, and 0.5 mg/mL γ-globulin, and 150 μL of the mixture was dispensed into a 8-strip PCR tube (BM Equipment Co., Ltd.). […]
pIC50: −log10 of the molar value.
metric: pIC50

Cc1ccnc(N2CCC(NC(=O)c3ccc(-c4nccc5occc45)cc3)CC2)n1 [Example 155] | 8.82

I = CNC(=O)c1ccc(-c2nccc3[nH]ccc23)cc1 [Example 1]
II = O=C(NCCCCCCO)c1ccc(-c2nccc3[nH]ccc23)cc1 [Example 17]
// compare measured pIC50 between I and II ; output the lower one // caller expects the label of the chosen entry
I
(I: 8.57, II: 9.07)

P = CO[C@H]1CC[C@H](NC(=O)c2ccc(-c3nccc4occc34)cc2)CC1 [Example 285]
Q = O=C(NCC1CC1)c1ccc(-c2nccc3occc23)cc1 [Example 83]
R = NS(=O)(=O)c1ccc(CCNC(=O)c2ccc(-c3nccc4[nH]ccc34)cc2)cc1 [Example 47]
List from greatest to least pIC50. Give the labels in the order specified.
R, P, Q
(R: 8.96, P: 8.70, Q: 7.82)

A = O=C(N[C@H]1CC[C@H](N2CC(F)(F)C2)CC1)c1ccc(-c2nccc3occc23)cc1 [Example 304]
B = CC(C)(O)[C@H]1CC[C@H](NC(=O)c2ccc(-c3nc(N)cc4occc34)cc2)CC1 [Example 315]
Compare A and B by numeric pIC50 and name the larger one. // caller expects the label of the chosen entry
B
